Reference for the values: patent US6203976A

// FOLD INDUCTION RELATIVE TO SOLVENT CONTROL, hGH lookup, one value per entry
- System: human growth hormone (532) promoter
- experiment_description: High-throughput luciferase reporter assay, human Growth Hormone promoter (Screen III)
- Type: cell-based
- particulars: Screen III activators; 532 cells; 6 hours
Lab book: enter the figure in fold, no units written.

Sample answers from the record:
CCOC(=O)N1C(=O)c2ccccc2C1=O ... 0.06
Nc1ccc2c(c1)C(=O)c1ccccc1-2 ... 0.85
NC(=O)N1c2ccccc2CCc2ccccc21 ... 5.46
Nc1c(Cl)ncnc1Cl ... 0.91

May I ask what FOLD INDUCTION RELATIVE TO SOLVENT CONTROL, hGH has been recorded for NCc1ccc(S(N)(=O)=O)cc1 ? 0.04

Next up: Nc1nc(=O)n([C@H]2C[C@H](O)[C@@H](CO)O2)cc1Br 1.08

Query CC1(C)O[C@@H]2C[C@H]3[C@@H]4CCC5=CC(=O)C=C[C@]5(C)[C@@]4(F)[C@@H](O)C[C@]3(C)[C@]2(C(=O)CO)O1 next 1.28

Same for CC(CCl)CBr (centres unmarked) 0.61

Repeat for the following compound: ClCCCCCBr 0.88

Same for Nc1ccccc1SSc1ccccc1N 0.54

###

Reported FOLD INDUCTION RELATIVE TO SOLVENT CONTROL, hGH is given for each of the following compounds.
- System: human growth hormone (532) promoter
- experiment_description: High-throughput luciferase reporter assay, human Growth Hormone promoter (Screen III)
- Format: cell-based
- particulars: Screen III activators; 532 cells; 6 hours
Could you give me the number in fold? Just the number is fine.

Answered examples (5):
Nc1ccc(SSc2ccc(N)cc2)cc1 ... 0.38
CCCCCCCCCCCCCCCC(=O)OCC(COC(=O)CCCCCCCCCCCCCCC)OC(=O)CCCCCCCCCCCCCCC ... 6.49
CC(=O)N(C)c1ccc(N)cc1 [Chemical #1374, 4'-Amino-N-methylacetanilide] ... 0.05
CCOc1ccc2nc3cc(N)ccc3c(N)c2c1 ... 5.94
O=C(O)C1CCC1 ... 9.41

May I ask what FOLD INDUCTION RELATIVE TO SOLVENT CONTROL, hGH has been recorded for Nc1nc(-c2ccccc2)cs1 ? 5.55

###

Property: FOLD INDUCTION RELATIVE TO SOLVENT CONTROL, GCSF; scope: individual molecules
- System: human G-CSF (G21) promoter
- experiment_description: High-throughput luciferase reporter assay, G-CSF promoter (Screen III)
- particulars: Screen III activators; G21 cells; 6 hours
Express the result in fold but write the number alone.

Consider the following illustrative entries.
CN(C)C(=S)SCC#N ... 9.50
Nc1ccc(SSc2ccc(N)cc2)cc1 ... 4.64
CN(C)c1ccc(C(=C2C=CC(=[N+](C)C)C=C2)c2ccc(N(C)C)cc2)cc1 ... 20.39

Read the next record carefully.
Value lookup for FOLD INDUCTION RELATIVE TO SOLVENT CONTROL, GCSF; key = CC(=O)c1c(C)cc(NC(C)(C)C)nc1NC(C)(C)C 5.62

###

Recorded FOLD INDUCTION RELATIVE TO SOLVENT CONTROL, MMTV values for a group of compounds are listed next.
- System: MMTV (M10) promoter
- experiment_description: High-throughput luciferase reporter assay, MMTV promoter (Screen III)
- Assay type: cell-based, mouse
- particulars: Screen III activators; M10 cells; 6 hours

Nc1nccs1 [compound 1550] ... 0.87 fold
Nc1c(Cl)ncnc1Cl [compound 1269] ... 2.18 fold
CCCCCCCCCCCCCCCC(=O)OCC(COC(=O)CCCCCCCCCCCCCCC)OC(=O)CCCCCCCCCCCCCCC [compound 856] ... 0.42 fold
ClCc1ccc(Cl)cc1 [compound 2129] ... 0.95 fold
ClCCN1CCCCC1 [compound 254] ... 0.98 fold
N=c1ccc2nc3ccc(N)cc3sc-2c1 [compound 836] ... 0.58 fold
Nc1c(Cl)c(Cl)nc(C(=O)O)c1Cl [compound 1561] ... 0.48 fold
Nc1nc2nc[nH]c2c(=S)[nH]1 [compound 1521] ... 0.92 fold
O=C(O)c1[nH]c(=O)[nH]c(=O)c1I [compound 633] ... 2.46 fold
CCOC(=O)c1c[nH]c(=S)[nH]c1=O [compound 1740] ... 0.87 fold

What value of FOLD INDUCTION RELATIVE TO SOLVENT CONTROL, MMTV has been recorded for this entry: NCc1ccc(S(N)(=O)=O)cc1 [compound 1375] 1.37 fold

Continue with CN(C)c1ccc2cc3ccc(N(C)C)cc3nc2c1 [compound 80] 0.83 fold
